- Tested on: Escherichia coli
- procedure.text: Antibacterial activity against Escherichia coli assessed as inhibition of bacterial growth incubated for 24 hrs by CLSI protocol based two fold serial dilution method
- Assay type: functional
Threshold-based label: MIC under 100 µg/mL gives Y, MIC not under 100 µg/mL gives N.

line.notation | target.or.system | label.class
Fc1cccc(COc2cccc3c2c2ccccc2n3Cc2nnc(S)o2)c1 | Escherichia coli | N
Fc1ccc(COc2cccc3c2c2ccccc2n3Cc2nnc(S)o2)cc1 | Escherichia coli | Y
CCN(CC)CCOc1cccc2c1c1ccccc1n2Cc1nnc(S)o1 | Escherichia coli | N
Sc1nnc(COc2cccc3[nH]c4ccccc4c23)o1 | Escherichia coli | Y
Fc1ccccc1COc1cccc2c1c1ccccc1n2Cc1nnc(S)o1 | Escherichia coli | N
Fc1ccc(COc2cccc3c2c2ccccc2n3Cc2nnc(S)o2)c(F)c1 | Escherichia coli | N
Sc1nnc(Cn2c3ccccc3c3c(OCc4ccc(Cl)cc4)cccc32)o1 | Escherichia coli | N
Sc1nnc(COc2cccc3c2c2ccccc2n3CC2CCCC2)o1 | Escherichia coli | Y
Sc1nnc(COc2cccc3c2c2ccccc2n3CC2CC2)o1 | Escherichia coli | Y
Sc1nnc(COc2cccc3c2c2ccccc2n3Cc2nnc(S)o2)o1 | Escherichia coli | Y
Sc1nnc(Cn2c3ccccc3c3c(OCCN4CCOCC4)cccc32)o1 | Escherichia coli | Y
CCCCCOc1cccc2c1c1ccccc1n2Cc1nnc(S)o1 | Escherichia coli | N
Sc1nnc(Cn2c3ccccc3c3c(OCC4CCCC4)cccc32)o1 | Escherichia coli | Y
